# credit: paper PMC5976803

- targetSystem: anti-CLDN-5 ECR mAb clone 2B1
- Sequence (chain, as listed by the source, chain 1 of 2): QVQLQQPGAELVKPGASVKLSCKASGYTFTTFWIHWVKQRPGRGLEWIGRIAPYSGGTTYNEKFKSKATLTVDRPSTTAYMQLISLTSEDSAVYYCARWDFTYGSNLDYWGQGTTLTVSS
- Sequence (chain, as listed by the source, chain 2 of 2): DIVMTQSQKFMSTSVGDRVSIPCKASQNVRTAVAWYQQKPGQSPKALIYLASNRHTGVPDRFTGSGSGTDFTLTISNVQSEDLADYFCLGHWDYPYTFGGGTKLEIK
- protocolNotes: proteoliposome ELISA
- cond: chain shown with the change;; parent: est. 1.0; read off a plot
Reported ratio to parent values for a set of binders
Would you mind answering with just the numeric figure?

Consider the worked cases shown below.
>>> result("AGIA-tagged human CLDN-5, cell-free synthesized proteoliposome, O00501 S155A (protein) MGSAALEILGLVLCLVGWGGLILACGLPMWQVTAFLDHNIVTAQTTWKGLWMSCVVQSTGHMQCKVYDSVLALSTEVQAARALTVSAVLLAFVALFVTLAGAQCTTCVAPGPAKARVALTGGVLYLFCGLLALVPLCWFANIVVREFYDPSVPVAQKYELGAALYIGWAATALLMVGGCLLCCGAWVCTGRPDLSFPVKYSAPRRPTATGDYDKKNYV")
0.84
>>> result("AGIA-tagged human CLDN-5, cell-free synthesized proteoliposome, O00501 S151A (protein) MGSAALEILGLVLCLVGWGGLILACGLPMWQVTAFLDHNIVTAQTTWKGLWMSCVVQSTGHMQCKVYDSVLALSTEVQAARALTVSAVLLAFVALFVTLAGAQCTTCVAPGPAKARVALTGGVLYLFCGLLALVPLCWFANIVVREFYDPAVPVSQKYELGAALYIGWAATALLMVGGCLLCCGAWVCTGRPDLSFPVKYSAPRRPTATGDYDKKNYV")
0.14

Fill in ratio to parent for record AGIA-tagged human CLDN-5, cell-free synthesized proteoliposome, O00501 E146A (protein) MGSAALEILGLVLCLVGWGGLILACGLPMWQVTAFLDHNIVTAQTTWKGLWMSCVVQSTGHMQCKVYDSVLALSTEVQAARALTVSAVLLAFVALFVTLAGAQCTTCVAPGPAKARVALTGGVLYLFCGLLALVPLCWFANIVVRAFYDPSVPVSQKYELGAALYIGWAATALLMVGGCLLCCGAWVCTGRPDLSFPVKYSAPRRPTATGDYDKKNYV
0.25
